Target: human P2X7 receptor (Homo sapiens, UniProt Q99572, R270H/Y155H)
Test: Evaluation of human P2X7 receptor inhibitory activity (Yo-Pro uptake, BzATP stimulation, FLIPR TETRA)
Assay type: cell-based
Settings: antagonistic activity for the human P2X7 receptor; read-out: IC50
pIC50: −log10 of the molar value.
Measured metric: pIC50

- Smiles str: "COc1cn(Cc2ccccc2)c(Nc2cc3c(cc2C)OCO3)nc1=O"
  System tested: "human P2X7 receptor (Homo sapiens, UniProt Q99572, R270H/Y155H)"
  Measured metric: "pIC50"
  Result: "7.00 to 8.00"
- Smiles str: "CCOC(=O)c1cn(Cc2cc(F)c(F)c(F)c2)c(Nc2cc(OC)c(F)cc2C)nc1=O"
  System tested: "human P2X7 receptor (Homo sapiens, UniProt Q99572, R270H/Y155H)"
  Measured metric: "pIC50"
  Result: "7.00 to 8.00"
- Smiles str: "COc1ccc(Nc2nc(=O)c(C)cn2Cc2cc(F)c(F)c(F)c2)c(C)c1"
  System tested: "human P2X7 receptor (Homo sapiens, UniProt Q99572, R270H/Y155H)"
  Measured metric: "pIC50"
  Result: "> 8.00"
- Smiles str: "COCc1cn(Cc2cc(F)c(F)c(F)c2)c(Nc2ccc(OC)cc2C)nc1=O"
  System tested: "human P2X7 receptor (Homo sapiens, UniProt Q99572, R270H/Y155H)"
  Measured metric: "pIC50"
  Result: "7.00 to 8.00"
- Smiles str: "COc1cn(Cc2ccccc2)c(Nc2cc(Oc3ccccn3)ccc2C)nc1=O"
  System tested: "human P2X7 receptor (Homo sapiens, UniProt Q99572, R270H/Y155H)"
  Measured metric: "pIC50"
  Result: "7.00 to 8.00"
- Smiles str: "COCc1cn(Cc2cc(F)c(F)c(F)c2)c(Nc2cc(C)cc3[nH]ccc23)nc1=O"
  System tested: "human P2X7 receptor (Homo sapiens, UniProt Q99572, R270H/Y155H)"
  Measured metric: "pIC50"
  Result: "> 8.00"
- Smiles str: "Cc1ccc(N2CCCC2=O)cc1Nc1nc(=O)c(F)cn1Cc1cc(F)cc(F)c1"
  System tested: "human P2X7 receptor (Homo sapiens, UniProt Q99572, R270H/Y155H)"
  Measured metric: "pIC50"
  Result: "> 8.00"
- Smiles str: "CCOc1ccc(Cl)c(Nc2nc(=O)c(F)cn2Cc2cc(F)c(F)c(F)c2)c1"
  System tested: "human P2X7 receptor (Homo sapiens, UniProt Q99572, R270H/Y155H)"
  Measured metric: "pIC50"
  Result: "> 8.00"

The origin of these recorded values is patent US10774051B2.
